Measured pKi, listed per entry.
# Assay target: human growth hormone secretagogue receptor (hGHS-R1a) (Homo sapiens)
# Construct: purchased PerkinElmer BioSignal #RBHGHSM; host or cells: HEK-293, stably transfected
# Procedure details: Competitive radioligand binding assay (ghrelin receptor), [125I]-ghrelin displacement on GHS-R/HEK 293 membranes
# Condition details: Table 3B; binding activity at the human ghrelin receptor; read-out: Ki
pKi: −log10 of the molar value.

Example cases with answers are listed next.
CC[C@H](C)[C@@H]1NCCCCCCCCNC(=O)[C@H](Cc2cccc(Cl)c2)NC(=O)C2(CCCC2)NC1=O [compound 363]: 6.00 to 7.00
CSCC[C@@H]1NCCOc2ccccc2CCCNC(=O)[C@@H](Cc2ccc(F)cc2)NC(=O)[C@@H](C)N(C)C1=O [compound 340]: 7.00 to 8.00
CC[C@H](C)[C@@H]1NCCOc2ccccc2/C=C/CNC(=O)[C@H](Cc2cccc(C#N)c2)NC(=O)C2(CCCC2)NC1=O [compound 329]: 7.00 to 8.00
CC[C@H](C)[C@@H]1NCCOc2ccccc2[C@@H]2C[C@@H]2CNC(=O)[C@H](Cc2cccc(Cl)c2)NC(=O)C2(CCCC2)NC1=O [compound 387]: 6.00 to 7.00
C[C@@H]1C(=O)N[C@H](Cc2ccc(F)cc2)C(=O)NCCCc2ccc(F)cc2OCCN[C@@H](C2CC2)C(=O)N1C [compound 372]: 8.00 to 10.00
C[C@@H]1C(=O)N[C@H](Cc2c(F)c(F)c(F)c(F)c2F)C(=O)NCCCc2ccccc2OCCN[C@@H](C2CC2)C(=O)N1C [compound 318]: 8.00 to 10.00
C[C@@H]1C(=O)N[C@H](Cc2ccc(C(F)(F)F)cc2)C(=O)NCCCc2ccccc2OCCN[C@@H](C2CC2)C(=O)N1C [compound 322]: 8.00 to 10.00
CCC(C)C1NCCOc2ccccc2C=CCNC(=O)C(Cc2cccc(C(F)(F)F)c2)NC(=O)C2(CCCC2)NC1=O (stereo not shown) [332a]: 7.00 to 8.00
C[C@@H]1C(=O)N[C@H](Cc2ccc(F)cc2)C(=O)NCCCc2cc(NS(C)(=O)=O)ccc2OCCN[C@@H](C2CC2)C(=O)N1C [compound 374]: 7.00 to 8.00
C[C@@H]1C(=O)N[C@H](Cc2ccc(F)cc2)C(=O)NCCCc2cc(C(F)(F)F)ccc2OCCN[C@@H](C2CC2)C(=O)N1C [compound 356]: 6.00 to 7.00

// field: pKi; key: CC[C@H](C)[C@@H]1NCCOc2ccccc2/C=C\CNC(=O)[C@H](Cc2cccc(Cl)c2)NC(=O)C2(CCCC2)NC1=O [compound 380] ; value = 6.00 to 7.00

// field: pKi; key: C[C@@H]1C(=O)N[C@H](Cc2ccc(F)cc2)C(=O)NC/C=C\c2ccccc2OCCN[C@@H](C2CC2)C(=O)N1C [compound 400] ; value = 7.00 to 8.00

// field: pKi; key: C[C@@H]1C(=O)N[C@H](Cc2ccc(F)cc2)C(=O)NCCCc2ccc(NS(C)(=O)=O)cc2OCCN[C@@H](C2CC2)C(=O)N1C [compound 357] ; value = 6.00 to 7.00

====

Measured Ki, listed per entry.
# Assay target: human growth hormone secretagogue receptor (hGHS-R1a) (Homo sapiens, UniProt Q92847)
# Construct: purchased PerkinElmer BioSignal #RBHGHSM; host or cells: HEK-293, stably transfected
# Sequence (Q92847 whole entry): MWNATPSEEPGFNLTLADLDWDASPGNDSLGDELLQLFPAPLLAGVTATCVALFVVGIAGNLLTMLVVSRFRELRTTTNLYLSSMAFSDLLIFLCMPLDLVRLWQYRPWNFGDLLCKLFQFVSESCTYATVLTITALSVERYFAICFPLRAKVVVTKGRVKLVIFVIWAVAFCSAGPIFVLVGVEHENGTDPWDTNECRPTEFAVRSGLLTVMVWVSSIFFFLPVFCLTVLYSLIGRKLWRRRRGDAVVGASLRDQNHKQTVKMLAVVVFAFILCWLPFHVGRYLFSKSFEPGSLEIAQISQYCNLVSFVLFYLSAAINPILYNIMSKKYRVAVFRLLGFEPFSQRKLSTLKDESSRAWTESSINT
# Procedure details: Competitive radioligand binding assay (ghrelin receptor), [125I]-ghrelin displacement on GHS-R/HEK 293 membranes
# Condition details: Table 4; TFA salts unless otherwise noted; read-out: Ki

Example cases with answers are listed next.
C[C@H]1NC(=O)C2(CCCC2)NCCOc2ccccc2/C=C/CNC(=O)[C@H](Cc2cccc(Cl)c2)NC1=O [compound 351]: 10 to 100 nM
CCC(C)[C@@H]1NC[C@@H](C)Oc2ccccc2CCCNC(=O)[C@H](Cc2cccc(Cl)c2)NC(=O)C2(CCCC2)NC1=O (stereo partly shown) [368a]: 0.1 to 10 nM
CC(C)[C@@H]1NCCOc2ccccc2CCCNC(=O)[C@H](Cc2ccccc2)NC(=O)C2(CCCC2)NC1=O [Compound 9]: 100 to 1000 nM

Now let's try a different one.
// field: Ki; key: CCC(C)[C@@H]1NC[C@@H](C)Oc2ccccc2CCCNC(=O)[C@@H](Cc2ccccc2)NC(=O)[C@@H](C)N(C)C1=O (stereo partly shown) [compound 35] ; value = 10 to 100 nM

====

# Assay target: human growth hormone secretagogue receptor (hGHS-R1a) (Homo sapiens, UniProt Q92847)
# Construct: purchased PerkinElmer BioSignal #RBHGHSM; host or cells: HEK-293, stably transfected
# Procedure details: Competitive radioligand binding assay (ghrelin receptor), [125I]-ghrelin displacement on GHS-R/HEK 293 membranes;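 for Binding Activity at the Human Ghrelin Receptor (Ki): symbols B 10-100 nM C 0.1-1 µM D 1-10 µM F above 1 µM G above 10 µM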
# Condition details: [125I]-ghrelin displacement, GHS-R/HEK 293 membranes; class symbols; read-out: Binding Activity at the Human Ghrelin Receptor (Ki)
Parameter measured: Ki

CC(C)C[C@@H]1NCCOc2ccccc2/C=C/CNC(=O)[C@H](Cc2cscn2)NC(=O)C2(CCCC2)NC1=O: > 10000 nM
CC(=O)N1CCOc2ccccc2/C=C/CNC(=O)[C@H](Cc2ccccc2)NC(=O)C2(CCCC2)NC(=O)[C@@H]1CC(C)C: > 10000 nM
CC(C)C[C@@H]1NCCOc2ccccc2CCCNC(=O)[C@H](Cc2ccccc2)NC(=O)[C@@H]2CCCN2C1=O: 1000 to 10000 nM
C[C@@H]1C(=O)N[C@H](Cc2ccccc2)C(=O)NCCCc2ccccc2OCCN2CCC[C@H]2C(=O)N1C: 100 to 1000 nM
O=C1NC2(CCCC2)C(=O)N[C@@H](Cc2ccccc2)C(=O)NC/C=C/c2ccccc2OCCN[C@H]1Cc1cnc[nH]1: 100 to 1000 nM

// field: Ki; key: "CC[C@H](C)[C@@H]1NCCCc2ccccc2CCNC(=O)[C@@H](Cc2ccccc2)NC(=O)[C@@H](C)N(C)C1=O" ; value = 100 to 1000 nM

// field: Ki; key: "O=C1NC2(CCCC2)C(=O)N[C@@H](Cc2ccccc2)C(=O)NC/C=C/c2ccccc2OCCN[C@H]1Cc1ccccn1" ; value = > 1000 nM

// field: Ki; key: "CC(C)[C@@H]1NCCOc2ccccc2CCCNC(=O)[C@H](Cc2ccccc2)NC(=O)C2(CC2)NC1=O" ; value = 1000 to 10000 nM

// field: Ki; key: "CC(C)[C@@H]1NCCOc2ccccc2/C=C/CNC(=O)[C@H](Cc2ccccc2)NC(=O)C2(CCNCC2)NC1=O" ; value = > 1000 nM

// field: Ki; key: "COc1ccc(C[C@@H]2NC(=O)C3(CCCC3)NC(=O)[C@H](CC(C)C)NCCOc3ccccc3/C=C/CNC2=O)cc1" ; value = 10 to 100 nM

// field: Ki; key: "O=C1NC/C=C/c2ccccc2OCCNC2(CCCCC2)C(=O)NC2(CCCC2)C(=O)N[C@H]1Cc1ccccc1" ; value = 10 to 100 nM

// field: Ki; key: "CC[C@H](C)[C@@H]1NCCCCc2ccccc2CCNC(=O)[C@@H](Cc2ccccc2)NC(=O)[C@@H](C)N(C)C1=O" ; value = 100 to 1000 nM

// field: Ki; key: "CC[C@H](C)[C@@H]1NCCc2ccccc2C=CCNC(=O)[C@@H](Cc2ccccc2)NC(=O)[C@@H](C)N(C)C1=O" ; value = 100 to 1000 nM

====

# Assay target: motilin receptor (Homo sapiens)
# Sequence (O43193 whole entry, species assumed): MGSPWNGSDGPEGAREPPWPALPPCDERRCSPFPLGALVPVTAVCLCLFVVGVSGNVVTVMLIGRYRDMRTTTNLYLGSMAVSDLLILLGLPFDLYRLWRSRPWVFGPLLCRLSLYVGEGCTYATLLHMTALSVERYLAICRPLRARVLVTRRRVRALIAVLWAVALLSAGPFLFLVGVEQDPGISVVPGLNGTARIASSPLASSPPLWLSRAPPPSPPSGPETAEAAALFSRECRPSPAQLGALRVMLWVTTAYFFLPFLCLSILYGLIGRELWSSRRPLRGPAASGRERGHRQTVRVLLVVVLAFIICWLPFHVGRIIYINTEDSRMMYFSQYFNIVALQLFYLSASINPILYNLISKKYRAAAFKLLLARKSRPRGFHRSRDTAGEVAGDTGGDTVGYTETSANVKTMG
# Procedure details: Selectivity for the ghrelin receptor versus the motilin receptor
# Type: binding
Measured Selectivity, listed per entry.

Example cases with answers are listed next.
C[C@@H]1C(=O)N[C@H](Cc2ccc(F)cc2)C(=O)NCCCc2ncccc2OCCN[C@@H](C2CC2)C(=O)N1C [306a]: 714/1
CCC[C@@H]1NCCOc2ccccc2CCCNC(=O)[C@@H](Cc2ccc(O)cc2)NC(=O)CN(C)C1=O: >100/1
CCC(C)C1NCCOc2ccccc2CCCNC(=O)C(CC(C)C)NC(=O)C(C)N(C)C1=O (stereo not shown): 105/1

Now let's try a different one.
Hey, motilin receptor (Homo sapiens) data for CC1COc2ccccc2CCCNC(=O)C(Cc2ccc(F)cc2)NC(=O)C(C)N(C)C(=O)C(C2CC2)N1 (stereo not shown) : Selectivity came out at 1700/1

====

# Assay target: human growth hormone secretagogue receptor (hGHS-R1a) (Homo sapiens, UniProt Q92847)
# Construct: purchased PerkinElmer BioSignal #RBHGHSM; host or cells: HEK-293, stably transfected
# Procedure details: Competitive radioligand binding assay (ghrelin receptor), [125I]-ghrelin displacement on GHS-R/HEK 293 membranes
# Condition details: Table 3C; read-out: Ki
pKi: −log10 of the molar value.
Parameter measured: pKi

Example cases with answers are listed next.
C[C@H]1NC(=O)C2(CCCC2)NCCOc2ccccc2/C=C/CNC(=O)[C@H](Cc2cccc(Cl)c2)NC1=O [compound 351]: 7.00 to 8.00
C[C@@H]1C(=O)N[C@H](Cc2cccc(Cl)c2)C(=O)NC/C=C/c2ccccc2OCCNC2(CCCC2)C(=O)N1C [compound 396]: 7.00 to 8.00
O=C1NC/C=C/c2ccccc2OCCNC2(CCCC2)C(=O)NC2(CCCC2)C(=O)N[C@H]1Cc1ccccc1 [compound 18]: 7.00 to 8.00

Now let's try a different one.
// field: pKi; key: C[C@H]1C(=O)N[C@H](Cc2cccc(Cl)c2)C(=O)NC/C=C/c2ccccc2OCCNC2(CCCC2)C(=O)N1C [compound 397] ; value = 6.00 to 7.00

Hello, the source for this data is patent US20180110824A1, in case you need it.
